target: recombinant human MAO-B (Homo sapiens, UniProt P27338); construct: purchased Sigma-Aldrich; test: Inhibitory activity on recombinant human MAO-B (kynuramine, fluorescence); format: biochemical; settings: selective index from Ki values (Ki = IC50/(1 + [S]/Km)); Si = Ki (MAO-B)/Ki (MAO-A)
Sequence (P27338 whole entry): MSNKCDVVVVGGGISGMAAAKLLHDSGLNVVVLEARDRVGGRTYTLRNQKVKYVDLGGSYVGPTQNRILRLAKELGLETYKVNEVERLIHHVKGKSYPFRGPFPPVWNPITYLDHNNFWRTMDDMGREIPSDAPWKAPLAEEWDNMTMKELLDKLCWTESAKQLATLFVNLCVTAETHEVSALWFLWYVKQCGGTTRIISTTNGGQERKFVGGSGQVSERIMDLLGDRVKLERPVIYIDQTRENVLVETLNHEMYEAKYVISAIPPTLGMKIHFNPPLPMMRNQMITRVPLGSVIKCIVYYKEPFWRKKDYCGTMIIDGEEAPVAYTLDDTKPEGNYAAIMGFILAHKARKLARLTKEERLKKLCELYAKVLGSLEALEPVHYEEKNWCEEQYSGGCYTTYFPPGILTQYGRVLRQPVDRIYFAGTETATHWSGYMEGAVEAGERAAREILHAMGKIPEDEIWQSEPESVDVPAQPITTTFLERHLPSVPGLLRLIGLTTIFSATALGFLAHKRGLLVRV
readout.label: Si MAO-B

[[record]]
compound = "COc1c(O)c(CC=C(C)C)c2oc3cc(O)c(CC=C(C)C)c(O)c3c(=O)c2c1C/C=C(\\C)CCC=C(C)C [Compound 10, cowagarcinone A]"
readout_label = "Si MAO-B"
quantitative_result = 183.168

[[record]]
compound = "COc1c(O)c(CC=C(C)C)c2oc3cc(O)c(CC=C(C)C)c(O)c3c(=O)c2c1CC=C(C)C [Compound 9, 7-O-methylgarcinone E]"
readout_label = "Si MAO-B"
quantitative_result = 0.0256

[[record]]
compound = "COc1cc2oc3cc(O)c(CC=C(C)C)c(O)c3c(=O)c2c(CC=C(C)C)c1OC [Compound 4, cowaxanthone B]"
readout_label = "Si MAO-B"
quantitative_result = 0.6333


1. COc1c(O)cc2oc3cc4c(c(O)c3c(=O)c2c1C/C=C(\C)CCC=C(C)C)C=CC(C)(C)O4 [Compound 6, fuscaxanthone A]
2. COc1c(O)cc2oc3cc4occc4c(O)c3c(=O)c2c1C/C=C(\C)CCC=C(C)C [Compound 8, xanthochymusxanthone A]
Looking at recorded values for Si MAO-B, does 1 or 2 come in lower? // respond with label for picked entry
1
